test system: Huntingtin (HTT) transcripts; assay: Quantitative splicing assay (HTT), qPCR; format: cell-based; settings: Homo sapiens; GM04724 (CAG 70/20) Huntington's disease patient lymphoblasts, 24 h, qPCR HTTex49_50; read-out: HTT Potency - Splicing: E49-50 EC50 (average)

| molecule | EC50 |
| --- | --- |
| COc1cc(-c2ccc(-c3ccc(O[C@@H]4C[C@H]5CCC[C@H](N5)[C@@H]4F)nn3)c(O)c2)cnn1 (single isomer, unassigned) | 0.01 to 15 nM |
| Cc1nc(-c2ccc(-c3ccc(O[C@H]4C[C@@H]5CCC[C@@H](N5)[C@H]4F)nn3)c(O)c2)cs1 (single isomer, unassigned) | 16 to 50 nM |
| Oc1cc(-c2cn[nH]c2)c(F)cc1-c1ccc(O[C@@H]2C[C@H]3CCC[C@H](N3)[C@@H]2F)nn1 (single isomer, unassigned) | 0.01 to 15 nM |
| Cn1cc(-c2cc(O)c(-c3ccc(O[C@@H]4C[C@H]5CCC[C@H](N5)[C@@H]4F)nn3)cc2F)cn1 (single isomer, unassigned) | 0.01 to 15 nM |
| Oc1cc(-c2nnco2)ccc1-c1ccc(O[C@H]2C[C@@H]3CC[C@@H](N3)[C@H]2F)nn1 (single isomer, unassigned) | 101 to 500 nM |
| Cn1ccc2cc(-c3ccc(O[C@H]4CC5CCC[C@@H](N5)[C@H]4F)nn3)c(O)cc2c1=O (single isomer, unassigned) | 101 to 500 nM |
| Cc1cc(-c2ccc(-c3ccc(O[C@@H]4C[C@H]5CCC[C@H](N5)[C@@H]4F)nn3)c(O)c2)ccn1 (single isomer, unassigned) | 16 to 50 nM |
| Cn1ccc2cc(-c3ccc(O[C@@H]4C[C@@]5(C)CC[C@](C)(N5)[C@@H]4F)nn3)c(O)cc2c1=O (single isomer, unassigned) | 51 to 100 nM |
| Cn1ccc(-c2ccc(-c3ccc(O[C@@H]4C[C@H]5CCC[C@H](N5)[C@@H]4F)nn3)c(O)c2)cc1=O (single isomer, unassigned) | 16 to 50 nM |
| Oc1cc(-c2cn[nH]c2)ccc1-c1ccc(O[C@@H]2C[C@H]3C[C@H](F)C[C@@H](C2)N3)nn1 | 0.01 to 15 nM |
| Cn1cnc(-c2ccc(-c3ccc(O[C@@H]4C[C@@]5(C)CCC[C@](C)(N5)[C@@H]4F)nn3)c(O)c2)cc1=O (single isomer, unassigned) | 16 to 50 nM |
| Cn1ccc(-c2ccc(-c3ccc(O[C@H]4C[C@@H]5CCC[C@@H](N5)[C@H]4F)nn3)c(O)c2)n1 (single isomer, unassigned) | 16 to 50 nM |
